# reported cell viability; entries follow
system: MOLM1 and UCSD/AML1 (averaged); test: cell viability relative to DMSO control (POC); higher = less growth inhibition; conditions: 1 µM; 72 h
Out of some 3,000 compounds screened, about 45 (2%) showed an effect of 50% or more. What follows is part of a selection rich in strong results, with near analogues and random picks from the rest.

COMPOUND: O=C(O)/C=C/c1ccc([N+](=O)[O-])cc1
MEASUREMENT UNITS: %
cell viability: 109
//
COMPOUND: O=C(/C=C/c1ccc(Cl)cc1Cl)c1cccc2ccccc12
MEASUREMENT UNITS: %
cell viability: 95.1
//
COMPOUND: COc1cccc(NC(=O)Cn2c(=O)cc(C(=O)N3CCCC3)c3ccccc32)c1
MEASUREMENT UNITS: %
cell viability: 102
//
COMPOUND: COc1ccc(/C=C/C(=O)c2ccccc2)cc1COc1ccc(Cl)cc1
MEASUREMENT UNITS: %
cell viability: 106
//
COMPOUND: O=C(O)c1cccc(Nc2nc(-c3ccc(Cl)cc3)nc3ccccc23)c1
MEASUREMENT UNITS: %
cell viability: 90
//
COMPOUND: O=C(/C=C/c1ccc([N+](=O)[O-])cc1)c1cccc2ccccc12
MEASUREMENT UNITS: %
cell viability: 32.8
//
COMPOUND: O=C(c1ccccc1)N1CCN(CC(O)Cn2c3ccccc3c3ccccc32)CC1 (centres undefined)
MEASUREMENT UNITS: %
cell viability: 99.4
//
COMPOUND: COc1ccc(/C=C/C(=O)c2ccccc2)cc1COc1ccc(NC(C)=O)cc1
MEASUREMENT UNITS: %
cell viability: 40
//
COMPOUND: CCN(CC)c1ccc2cc(-c3ccccc3)c(=O)oc2c1
MEASUREMENT UNITS: %
cell viability: 96.9
//
COMPOUND: COc1ccc(/C=C/C(=O)c2ccccc2)cc1COc1ccc([N+](=O)[O-])cc1
MEASUREMENT UNITS: %
cell viability: 101
//
COMPOUND: CCCCCC1CCC(=O)N1CCN=Cc1c(O)c(O)c(C(C)C)c2cc(C)c(-c3c(C)cc4c(C(C)C)c(O)c(O)c(C=NCCN5C(=O)CCC5CCCCC)c4c3O)c(O)c12 (centres undefined)
MEASUREMENT UNITS: %
cell viability: 86.9
//
COMPOUND: Cc1ccc(NC(=O)CN2C(=O)S/C(=C/c3cc4c(cc3Cl)OCO4)C2=O)cc1
MEASUREMENT UNITS: %
cell viability: 92
//
COMPOUND: CC(=O)OCC1OC(OC(C)=O)C(OC(C)=O)C(OC(C)=O)C1OC(C)=O (centres undefined)
MEASUREMENT UNITS: %
cell viability: 109
//
COMPOUND: Cc1cc2c(c(O)c1-c1c(C)cc3c(c1O)/C(=C/Nc1c(C)n(C)n(-c4ccccc4)c1=O)C(=O)C(O)=C3C(C)C)/C(=C/Nc1c(C)n(C)n(-c3ccccc3)c1=O)C(=O)C(O)=C2C(C)C
MEASUREMENT UNITS: %
cell viability: 84.6
//
COMPOUND: O=C(/C=C/c1ccc2c(c1)OCO2)c1ccc2c(c1)OCCO2
MEASUREMENT UNITS: %
cell viability: 104
//
COMPOUND: CN1CCN(Cc2c(O)ccc3cc(-c4nc5ccccc5s4)c(=O)oc23)CC1
MEASUREMENT UNITS: %
cell viability: 101
//
COMPOUND: Cc1cc2c(C(C)C)c(O)c(O)c(/C=N/N3CCN(C)CC3)c2c(O)c1-c1c(C)cc2c(C(C)C)c(O)c(O)c(/C=N/N3CCN(C)CC3)c2c1O
MEASUREMENT UNITS: %
cell viability: 4.5
//
COMPOUND: COc1ccc(C(=O)CC2(O)C(=O)N(Cc3cccc4ccccc34)c3ccccc32)cc1OC (centres undefined)
MEASUREMENT UNITS: %
cell viability: 97.5
//
COMPOUND: O=C(Cn1c(=O)cc(C(=O)N2CCCCC2)c2ccccc21)Nc1ccc(F)cc1
MEASUREMENT UNITS: %
cell viability: 89.9
